- Tested on: ACHN
- Test name: NCI tumour cell line growth inhibition, 48 h
The source made the active and inactive calls. No stated cut-off is given here; in the data, active = GI50 up to about 1.1 µM and inactive = higher.
Quick list: GI50 per entry.

Cc1ccc(S(=O)(=O)NC(=O)NC(CCCCN)C(=O)O)cc1 (stereo not drawn): > 100 µM (inactive)
S=C1CC(c2ccccc2)Sc2ccccc2N1 (stereo not drawn): 69 µM (inactive)
O=C(NC(=S)Nc1ccc2c(c1)Sc1ccccc1O2)c1ccccc1: 31.3 µM (inactive)

Incoming: Bench note: what GI50 did CCN(CC)c1c(C(=O)/C=C/c2ccc(F)cc2)c(-c2ccccc2)nn(C)c1=O show?
Outgoing: 6.9 µM (inactive)

Incoming: Bench note: what GI50 did O=C(c1ccccc1)c1ccc2cccc(OC3OC(CO)C(O)C(O)C3O)c2n1 (stereo not drawn) show?
Outgoing: > 100 µM (inactive)

Incoming: Bench note: what GI50 did O=C(NCCN1C(=O)CN=C(c2ccc(Cl)cc2)c2cc(Cl)ccc21)OCc1ccccc1 show?
Outgoing: 16.3 µM (inactive)

Incoming: Bench note: what GI50 did C=CC1C2=C(C(=O)NCC2)C2OC(O)C3=C(CCNC3=O)C2C1C (stereo not drawn) show?
Outgoing: > 100 µM (inactive)

Incoming: Bench note: what GI50 did O=C(C(=O)n1ccc2ccccc21)n1ccc2ccccc21 show?
Outgoing: > 100 µM (inactive)

Incoming: Bench note: what GI50 did CCc1ccccc1NC(=O)/C=C/c1ccccc1 show?
Outgoing: > 100 µM (inactive)

Incoming: Bench note: what GI50 did O1C2C1C1OC1C1OC1C1OC21 (stereo not drawn) show?
Outgoing: > 100 µM (inactive)

Incoming: Bench note: what GI50 did O=C1C(Cl)=C(Nc2ccc(S(=O)(=O)Nc3ccccn3)cc2)C(=O)c2ccccc21 show?
Outgoing: 10.6 µM (inactive)

Incoming: Bench note: what GI50 did CC1(O)C=CC2CCC1C2O (stereo not drawn) show?
Outgoing: > 100 µM (inactive)

Incoming: Bench note: what GI50 did CCCCCCCCCCCCCCCCCCNc1ccn(C2OC(COP(=O)(O)OCC3OC(n4ccc(NC(=O)CCCCCCCCCCCCCCCCC)nc4=O)C(OC(C)=O)C3OC(C)=O)C(OC(C)=O)C2OC(C)=O)c(=O)n1 (stereo not drawn) show?
Outgoing: > 100 µM (inactive)

* * *

- Tested on: DU-145
- Test name: NCI tumour cell line growth inhibition, 48 h
The source made the active and inactive calls. Rule as the data show it: active = GI50 up to about 1.1 µM and inactive = higher.
Response enum: active, inactive

Field: example entries. Status: answers known.
O=c1nc(Oc2c(F)c(F)c(F)c(F)c2F)ccn1C1OC(CO)C(O)C1O (stereo not drawn): inactive
C[N+](C)(C)c1ncnc2c1ncn2C1CCCCO1 (stereo not drawn): inactive
COc1cc(C2SCC(=O)N2c2ccc(NC(C)=O)cc2)cc(OC)c1OC (stereo not drawn): inactive
Cc1ccc(-n2nnc(C#N)c2O)cc1: inactive
CNC(=O)N(CCC#N)CCCN(C(=O)NC)c1ccccc1: inactive

Incoming: What was the test verdict on CC(=O)O[C@H]1CC[C@H]2[C@@H]3CCc4cc(O)c(I)cc4[C@H]3CC[C@]12C ?
Outgoing: inactive

Incoming: What was the test verdict on CC(N1CCOCC1)C(O)(c1ccccc1)c1ccccn1 (stereo not drawn) ?
Outgoing: inactive

Incoming: What was the test verdict on COc1ccc(C(=O)C#Cc2cn(C3CC(O)C(CO)O3)c(=O)[nH]c2=O)cc1 (stereo not drawn) ?
Outgoing: inactive

Incoming: What was the test verdict on Oc1c(/N=N/c2ccccc2)c2ccccc2c2ccc3ccccc3c12 ?
Outgoing: inactive

Incoming: What was the test verdict on O=C1c2cc([N+](=O)[O-])cnc2S(=O)(=O)N1c1ccc(Oc2ccccc2)cc1 ?
Outgoing: inactive

Incoming: What was the test verdict on CNC(=O)N(C)/N=N/CCCl ?
Outgoing: inactive

Incoming: What was the test verdict on CCOC(=O)/C(=N\OC)C(O)C(F)(F)F (stereo not drawn) ?
Outgoing: inactive

Incoming: What was the test verdict on Oc1ccc(Br)cc1/C=N/c1c(NC2CCCCC2)oc2ccc(Br)cc12 ?
Outgoing: inactive

Incoming: What was the test verdict on Cc1cc(=O)oc2cc(O)ccc12 [HYMECROMONE] ?
Outgoing: inactive

Incoming: What was the test verdict on Cc1cc(=O)nc(S(=O)(=O)NC(=O)Nc2cccc(Cl)c2)[nH]1 ?
Outgoing: inactive

Incoming: What was the test verdict on CC1(C)OP(=O)(c2ccccc2)C=C1Br (stereo not drawn) ?
Outgoing: inactive

Incoming: What was the test verdict on CCc1nn(S(=O)(=O)c2ccc(C)cc2)c2c1CS(=O)(=O)CC2 ?
Outgoing: inactive

Incoming: What was the test verdict on CC(=O)NCCc1c(-c2[nH]c3ccccc3c2CCNC(C)=O)[nH]c2ccccc12 ?
Outgoing: inactive

Incoming: What was the test verdict on Cc1cn2c(/C=N/NC(=N)N)c(-c3ccc([N+](=O)[O-])cc3)nc2s1 ?
Outgoing: inactive

Incoming: What was the test verdict on CN1C(=O)C(C(N)=O)C2CC1(C)Oc1ccccc12 (stereo not drawn) ?
Outgoing: inactive

* * *

Quick list: GI50 per entry.
- System: HOP-92
- Test name: NCI tumour cell line growth inhibition, 48 h
The source made the active and inactive calls. No stated cut-off is given here; in the data, active = GI50 up to about 1.1 µM and inactive = higher.

Some entries whose results are on file:
c1ccc(/N=c2\snc3scc(-c4ccccc4)n23)cc1: 34.2 µM (inactive)
CCCCCCCCCC1CC(=O)NCC(=O)NC(C(C)C)C(=O)NC(CC(C)C)C(=O)NC(C)C(=O)NC(C(C)C)C(=O)O1 (centres undefined): 15.5 µM (inactive)
COC(=O)C1CC(C=O)=C(SC)N1 (centres undefined): > 50 µM (inactive)
O[C@@H]1C[C@H]2N3CC[C@@]2(c2cc4c(cc2C3)OCO4)[C@H]2O[C@@H]12: > 100 µM (inactive)

Incoming: Bench note: what GI50 did C[Si](C)(C)CNC(=O)OCc1ccccc1 show?
Outgoing: 22.1 µM (inactive)

Incoming: Bench note: what GI50 did CN1C(=O)CN2C(Cl)(Cl)C2(c2ccccc2F)c2cc([N+](=O)[O-])ccc21 (centres undefined) show?
Outgoing: 19.3 µM (inactive)

Incoming: Bench note: what GI50 did CO/N=C1\CCC2(O)C3Cc4ccc(O)c5c4C2(CCN3CC2CC2)[C@H]1O5 (some centres undefined) show?
Outgoing: > 100 µM (inactive)

Incoming: Bench note: what GI50 did C/C(CC(=O)Nc1cc(Cl)c(Cl)cc1Cl)=N\NS(=O)(=O)c1ccc(C)cc1 show?
Outgoing: 23.1 µM (inactive)

Incoming: Bench note: what GI50 did C=CC1=CSNN1 show?
Outgoing: > 100 µM (inactive)

* * *

Quick list: GI50 per entry.
- Test system: M14
- Test name: NCI tumour cell line growth inhibition, 48 h
Calls of active or inactive are those of the source. No stated cut-off is given here; in the data, active = GI50 up to about 1.1 µM and inactive = higher.

Fc1cccc(F)c1C(Nc1nncs1)Nc1nncs1: 59.6 µM (inactive)

Incoming: Bench note: what GI50 did CCOC(=O)CC/C(C)=N\n1c(Cc2ccc(Cl)cc2)n[nH]c1=O show?
Outgoing: > 100 µM (inactive)

Incoming: Bench note: what GI50 did CCN(CC)c1c(C(=O)/C=C/c2ccc(F)cc2)c(-c2ccccc2)nn(C)c1=O show?
Outgoing: 12.1 µM (inactive)

Incoming: Bench note: what GI50 did Cc1cc2c(cc1C)[n+]([O-])c(C(=O)CC(=O)C(=O)Nc1ccccc1C)c(C)[n+]2[O-] show?
Outgoing: > 100 µM (inactive)

* * *

- System: KM12
- Test name: NCI tumour cell line growth inhibition, 48 h
The source made the active and inactive calls. Rule as the data show it: active = GI50 up to about 1.1 µM and inactive = higher.
Response enum: active, inactive

C/C(=N\N=C(/S)N1CC2CCC(CC2)C1)c1ccncn1: active
Cc1cc2c(ccc3c(C)cc(=O)oc32)o1: inactive
Cc1nc2nn(C)cc2c(=O)n1/N=C/c1ccccc1: inactive

From here, focus on the item given below.
Incoming: What was the test verdict on O=C(NCCN1C(=O)CN=C(c2ccc(Cl)cc2)c2cc(Cl)ccc21)OCc1ccccc1 ?
Outgoing: inactive

* * *

- System: SNB-19
- Test name: NCI tumour cell line growth inhibition, 48 h
Calls of active or inactive are those of the source. Cut-off read from the data, not from the text of the source: active = GI50 up to about 1.1 µM and inactive = higher.
Response enum: active, inactive

Nc1ccn(CCCC(c2ccccc2)P(=O)(O)O)c(=O)n1 (stereo not given): inactive
CC[C@@]1(O)C(=O)OCc2c1cc1n(c2=O)Cc2c-1nc1ccccc1c2/C=N\NC(=O)C(N)CCSC (stereo not given in full): active
Cc1cc2c(cc1C)[n+]([O-])c(C(=O)CC(=O)C(=O)Nc1ccccc1C)c(C)[n+]2[O-]: inactive
O=C(C(=O)n1ccc2ccccc21)n1ccc2ccccc21: inactive
C=CC1=CSNN1: inactive

Incoming: What was the test verdict on Fc1ccc2nc3n(c2c1)C(c1c(F)cccc1F)SC3 (stereo not given) ?
Outgoing: inactive

* * *

Quick list: GI50 per entry.
- System: Hs-578T
- Test name: NCI tumour cell line growth inhibition, 48 h
Activity calls are given as the source filed them. Cut-off read from the data, not from the text of the source: active = GI50 up to about 1.1 µM and inactive = higher.

Some entries whose results are on file:
CCCCCCCCCC1CC(=O)NCC(=O)NC(C(C)C)C(=O)NC(CC(C)C)C(=O)NC(C)C(=O)NC(C(C)C)C(=O)O1 (centres undefined): 18 µM (inactive)
CC(C)COC(=O)OC(=O)c1ccc(N(C)Cc2cnc3nc(N)nc(N)c3n2)cc1: > 100 µM (inactive)
S=C1SCN(Cc2ccco2)CN1c1ccc(Br)cc1: 24.8 µM (inactive)
COC(=O)C1=C(O)C(C(=O)OC)[C@]2(O)[C@H](C(=O)OC)[C@H]1C[C@@H](c1ccccc1OC)[C@H]2C(=O)OC (some centres undefined): 2.49 µM (inactive)
CC1(CCC(=O)OC2CCCCC2)OCCO1: > 100 µM (inactive)
CC1=C(Cl)C[C@@H](/C(C)=C\Cl)O[C@@]1(O)C(Br)Br: 45.5 µM (inactive)
Cc1ccc(-n2cnc(C(=N)C#N)c2N)cc1: > 100 µM (inactive)
C(=C\c1ccccc1)/COc1ccccc1C(N1CCOCC1)n1nc2ccccc2n1 (centres undefined): 7.24 µM (inactive)

Moving on to another molecule below.
Incoming: Bench note: what GI50 did O[C@@H]1C[C@H]2N3CC[C@@]2(c2cc4c(cc2C3)OCO4)[C@H]2O[C@@H]12 show?
Outgoing: > 100 µM (inactive)
